These measurements were taken from ChEMBL document CHEMBL1649253.

Tested on: Mycobacterium tuberculosis
Assay: Antibacterial activity against pyrazinamide-resistant Mycobacterium tuberculosis H37Ra
Format: functional
This section presents molecules with their documented MIC values.

Illustrative cases are given below, each with its answer.
{"Molecule": "NC(=O)c1cnccn1 [PYRAZINAMIDE]", "MIC": "> 4000 µg/mL"}
{"Molecule": "NNC(=O)c1ccncc1", "MIC": "0.2 µg/mL"}
{"Molecule": "CC[C@@H](CO)NCCN[C@@H](CC)CO", "MIC": "5 µg/mL"}

Provide the documented MIC with Mycobacterium tuberculosis as the system for CO[C@H]1/C=C/O[C@@]2(C)Oc3c(C)c(O)c4c(O)c(c(/C=N/N5CCN(C)CC5)c(O)c4c3C2=O)NC(=O)/C(C)=C\C=C\[C@H](C)[C@H](O)[C@@H](C)[C@@H](O)[C@@H](C)[C@H](OC(C)=O)[C@@H]1C
0.2 µg/mL
